B1: library; a variant is named by its letters at N, in order (parent)
chain: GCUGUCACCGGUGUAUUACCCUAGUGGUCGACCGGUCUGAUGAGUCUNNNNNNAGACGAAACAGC

variants of: B1; experiment: FACS-Seq fitted mean relative fluorescence mCherry/BFP without ligand (log10 relative fluorescence); ligand: hypoxanthine (xanthine aptamer); higher = higher reporter protein expression; details: HEK293T, ligand present: no
Label label 1 when FACS-Seq fitted mean (log10) is at or above 0.2; anything below gets label 0.

Answered examples (2):
mutation_spec=UCUGUG class="label 0"
mutation_spec=AGGUAG class="label 0"

Please check the record CGGAUU and state if its FACS-Seq fitted mean (log10) is at or above 0.2.
label 0

Check the entry ACAAGC : does FACS-Seq fitted mean (log10) equal or exceed 0.2?
label 1

Is the recorded value of FACS-Seq fitted mean (log10) equal to or greater than 0.2 for this variant? AAUUAA
label 1

Hi team, for GCGCAC , is the recorded FACS-Seq fitted mean (log10) at or above 0.2?
label 0

Does FACS-Seq fitted mean (log10) meet or surpass 0.2 for UGAGCC ?
label 1

Please check the record GCAGAA and state if its FACS-Seq fitted mean (log10) is at or above 0.2.
label 1

Check if FACS-Seq fitted mean (log10) >= 0.2 (inclusive). Item: GUCGAG
label 1
